Assignment: determine reported Emax for the given compounds.
- STUDY SYSTEM: human FXR (Homo sapiens, UniProt Q96RI1)
- Construct: characterized in a full-length (fl) FXR reporter gene assay in HeLa cells; expressed in transfected cells; host or cells: HeLa
- Sequence (Q96RI1 whole entry): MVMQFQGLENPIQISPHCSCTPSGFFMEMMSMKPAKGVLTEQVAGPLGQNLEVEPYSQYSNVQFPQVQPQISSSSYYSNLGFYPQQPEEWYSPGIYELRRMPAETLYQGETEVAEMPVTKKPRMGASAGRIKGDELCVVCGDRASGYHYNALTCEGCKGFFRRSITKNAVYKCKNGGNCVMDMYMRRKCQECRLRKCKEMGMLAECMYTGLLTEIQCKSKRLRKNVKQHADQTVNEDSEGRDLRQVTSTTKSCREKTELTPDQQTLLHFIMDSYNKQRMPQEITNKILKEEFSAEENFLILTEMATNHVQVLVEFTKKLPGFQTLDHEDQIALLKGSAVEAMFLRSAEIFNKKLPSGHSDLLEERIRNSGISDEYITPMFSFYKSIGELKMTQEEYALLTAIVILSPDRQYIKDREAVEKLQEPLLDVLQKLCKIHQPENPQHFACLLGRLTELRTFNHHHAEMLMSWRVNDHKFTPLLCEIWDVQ
- Sequence (P19793 whole entry partner): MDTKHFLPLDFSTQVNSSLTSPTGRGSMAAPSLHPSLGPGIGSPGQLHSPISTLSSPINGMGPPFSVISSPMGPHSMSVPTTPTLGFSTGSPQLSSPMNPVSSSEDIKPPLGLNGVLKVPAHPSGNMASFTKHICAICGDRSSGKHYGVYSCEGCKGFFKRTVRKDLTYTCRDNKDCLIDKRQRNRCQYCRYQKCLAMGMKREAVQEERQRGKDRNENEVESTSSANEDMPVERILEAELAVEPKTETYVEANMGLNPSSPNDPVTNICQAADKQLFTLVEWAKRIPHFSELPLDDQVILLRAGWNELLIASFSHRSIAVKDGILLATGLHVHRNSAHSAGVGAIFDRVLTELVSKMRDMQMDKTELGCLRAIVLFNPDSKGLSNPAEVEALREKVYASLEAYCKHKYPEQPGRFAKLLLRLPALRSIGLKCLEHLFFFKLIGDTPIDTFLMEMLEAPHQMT
- EXPERIMENTAL PROTOCOL: full-length FXR reporter gene (transactivation) assay in HeLa cells
- Type: cell-based
- TEST SETTINGS: HeLa; read-out: FXR activation max. rel. activation (converted)
Numbers only, in %.

Recorded results for 3 compounds are shown here.
1. COc1ccc(CNC(=O)c2ccc(C(C)(C)C)cc2)cc1: 19
2. CC(C)(C)c1ccc(C(=O)NCc2ccc(C(=O)O)c(F)c2)cc1: 28
3. O=C(O)c1ccc(CNC(=O)c2ccc(-c3ccccc3)cc2)cc1: 24

Here is the next item to consider.
Ask: For CCS(=O)(=O)Nc1ccc(CNC(=O)c2ccc(C(C)(C)C)cc2)c(Cl)c1 , what is its reported Emax?
Result: 23
